From: patent US20110135636A1

- ASSAYED TARGET: T1, recombinant human EGFR extracellular domain with 6xHis (human, UniProt P00533 25-645)
- T1 construct: In-house produced; also called 6xHis EGFR ECD; soluble human EGFR ECD; not shown: 6xHis tag
- ASSAY INFO: SPR competition, competitor Vectibix
binders and their reported % inhibition
Write the number in % without appending the unit.

These recorded examples may help you get a feel for the data.
BINDER	REPORTED PROPERTY	DISPLAY UNIT	OBSERVED VALUE
antibody 992 (antibody, human IgG1, kappa, V domains shown, Chimeric mouse/human IgG1 kappa; the VL entry includes the human kappa constant region) VH: EVQLQQPGSELVRPGASVKLSCKASGYTFTSYWMHWVKQRPGQGLEWIGNIYPGSRSTNYDEKFKSKATLTVDTSSSTAYMQLSSLTSEDSAVYYCTRNGDYYVSSGDAMDYWGQGTSVTVSS VL: DIQMTQTTSSLSASLGDRVTISCRTSQDIGNYLNWYQQKPDGTVKLLIYYTSRLHSGVPSRFSGSGSGTDFSLTINNVEQEDVATYFCQHYNTVPPTFGGGTKLEIKR	% inhibition	%	106
antibody 1308 (antibody, human IgG1, kappa, V domains shown, Chimeric IgG1 kappa) VH: EVQLQQSGAELVRPGSSVKISCKASGYAFSSYWMNWVRQRPGQGLEWIGQIYPGDGDTNYNGKFKGRATLTANKSSSTAYMQLSSLTSEDSAVYFCARRASSLYDVYPYYFDYWGQGTTLTVSS VL: DIQMTQTTSSLSASLGDRVTISCRASQDISNYLNWYQQKPDGTVKVLIYYTSRLHSGVPSRFSGSGSGTDYSLTISNLEQEDIATYFCQQGNTLPYTFGGGTKLEIKR	% inhibition	%	-8
antibody 1284 (antibody, human IgG1, kappa, V domains shown, Chimeric IgG1 kappa) VH: QVQLQQPGAELVKPGASVKLSCKASGYTFTSDWMHWMKQRPGQGLEWIGEINPSNGRSSYNEKFKSKATLTVDKSSSTAYMQLSSLTSEDSAVYYCARIGGIYVETYWGQGTLVTVSS VL: DIVLTQSPASLAVSLGQRATISCRASQSVSTSTYSYMHWYQQKSGQPPKLLIKYASNLESGVPARFSGSGSGTDFTLNIHPVEEEDTATYYCQHSWEIPWTFGGGTKLEIKR	% inhibition	%	-13
antibody 1347 (antibody, human IgG1, kappa, V domains shown, Chimeric IgG1 kappa) VH: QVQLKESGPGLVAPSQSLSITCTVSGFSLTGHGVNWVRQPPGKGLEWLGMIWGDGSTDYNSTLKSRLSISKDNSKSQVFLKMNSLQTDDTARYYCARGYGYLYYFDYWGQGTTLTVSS VL: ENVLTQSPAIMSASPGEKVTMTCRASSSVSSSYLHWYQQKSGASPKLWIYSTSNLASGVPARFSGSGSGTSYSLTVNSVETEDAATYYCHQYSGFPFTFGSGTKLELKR	% inhibition	%	-6
antibody 1261 (antibody, human IgG1, kappa, V domains shown, Chimeric IgG1 kappa) VH: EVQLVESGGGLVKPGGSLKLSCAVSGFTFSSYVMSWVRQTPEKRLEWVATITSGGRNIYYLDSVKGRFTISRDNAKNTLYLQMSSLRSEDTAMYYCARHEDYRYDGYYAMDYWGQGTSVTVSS VL: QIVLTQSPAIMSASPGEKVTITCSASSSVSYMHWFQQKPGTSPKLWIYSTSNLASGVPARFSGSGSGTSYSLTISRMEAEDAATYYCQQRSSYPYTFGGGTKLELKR	% inhibition	%	-5
antibody 1260 (antibody, human IgG1, kappa, V domains shown, Chimeric IgG1 kappa) VH: QVQLKESGPGLVAPSQSLSITCTVSGFSLTTYGVHWVRQPPGKGLEWLGVIWAGGSTNYNSALMSRLSIKKDNSKSQVFLKMNSLQTDDTAMYYCARAYGYNFDYWGQGTTLTVSS VL: DIQMTQTTSSLSASLGDRVTISCSASQGITNYLNWYQQKPDGTVKLLIYYSSSLHSGVPSRFSGSGSGTDYSLTISNLEPEDIATYYCQQYSEIPYTFGGGTKLELKR	% inhibition	%	10

# % inhibition (binder: antibody 1208 (antibody, human IgG1, kappa, V domains shown, Chimeric IgG1 kappa; also called clone 1208) VH: EVQLVESGGGLVKPGGSLKLSCAASGFAFSSYDMSWVRQTPEKRLEWVAYIGSGDDNTHYPDSVKGRFTISRHNAKNTLYLQMSSLKSEDTAMYYCARQKYGNYGDTMDYWGQGTSVTVSS VL: DVVMTQTPLSLPVSLGDQASISCRSSQSLVHSNGNTYLHWYLQKPGQSPKLLIYKVSNRFSGVPDRFSGSGSGTDFTLKISRVEAEDLGVYFCSQSTHVPTFGGGTKLEIKR ) is 29

# % inhibition (binder: antibody 1024 (antibody, human IgG1, kappa, V domains shown, Chimeric IgG1 kappa) VH: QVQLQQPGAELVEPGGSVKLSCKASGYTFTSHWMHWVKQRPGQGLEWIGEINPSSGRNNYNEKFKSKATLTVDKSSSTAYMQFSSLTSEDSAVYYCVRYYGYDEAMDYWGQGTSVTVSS VL: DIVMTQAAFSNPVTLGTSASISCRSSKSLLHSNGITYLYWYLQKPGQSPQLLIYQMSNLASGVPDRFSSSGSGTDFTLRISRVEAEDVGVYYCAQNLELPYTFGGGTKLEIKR ) is 102

# % inhibition (binder: antibody 1257 (antibody, human IgG1, kappa, V domains shown, Chimeric IgG1 kappa) VH: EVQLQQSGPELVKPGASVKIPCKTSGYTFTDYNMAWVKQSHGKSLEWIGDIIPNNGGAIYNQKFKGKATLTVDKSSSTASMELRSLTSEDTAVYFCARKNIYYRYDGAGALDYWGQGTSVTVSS VL: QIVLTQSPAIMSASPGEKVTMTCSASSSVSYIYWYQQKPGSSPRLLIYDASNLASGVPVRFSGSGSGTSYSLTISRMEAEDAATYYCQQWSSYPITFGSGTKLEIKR ) is -2

# % inhibition (binder: antibody 1042 (antibody, human IgG1, kappa, V domains shown, Chimeric IgG1 kappa; RA- left out of the VH entry) VH: QVQLQQPGAELVKPGASVKLSCKASGYTFTSHWMHWVQQRPGQGLEWIGEIHPSNGRTNYNEKFKNKATLTVDKSPSTAYMQLSSLTSEDSAVYYCARYYGYDDAMDYWGQGTSVTVSS VL: DIVMTQAAFSNPVTLGTSASISCRSSKSLLHSNGITYLYWYLQKPGQSPQLLIYQMSNLASGVPDRFSSSGSRTDFTLRISRVEAEDVGVYYCAQNLELPYTFGGGTKLEIKR ) is 110
